# study-target: human MC4-receptor (human)
# experiment-description: competition with [^125I]NDP-MSH on COS cells expressing human MC4 receptor; Ki by Cheng-Prusoff
pKi: −log10 of the molar value.
quantity-kind: pKi

Exercise: Query (substance): MS05 (Ser-Ser-Ile-Ile-Ser-His-Phe-Arg-Trp-Gly-Lys-Pro-Val-NH2) (peptide) ; field requested: pKi
Key: < 4.30

----------
# study-target: human MC5-receptor (human) (UniProt P33032)
# Sequence (P33032 whole entry): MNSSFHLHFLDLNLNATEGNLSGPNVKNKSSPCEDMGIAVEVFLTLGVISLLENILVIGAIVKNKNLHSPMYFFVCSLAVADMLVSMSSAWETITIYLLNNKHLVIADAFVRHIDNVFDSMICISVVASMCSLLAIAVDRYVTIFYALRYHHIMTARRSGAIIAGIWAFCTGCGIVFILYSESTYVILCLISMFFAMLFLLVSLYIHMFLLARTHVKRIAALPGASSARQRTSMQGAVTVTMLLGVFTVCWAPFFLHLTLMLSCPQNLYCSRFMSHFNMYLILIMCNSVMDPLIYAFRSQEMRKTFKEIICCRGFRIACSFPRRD
# experiment-description: competition with [^125I]NDP-MSH on COS cells expressing human MC5 receptor; Ki by Cheng-Prusoff
quantity-kind: Ki

Exercise: Recorded Ki for MS05 (Ser-Ser-Ile-Ile-Ser-His-Phe-Arg-Trp-Gly-Lys-Pro-Val-NH2) (peptide) , please?
Key: > 50 µM
